System: B. Fragilis NCTC 10581
assay-notes: Anti-anaerobic activity, strain A (microtitre plate MIC/MBC)
Assay type: cell-based, Bacteroides fragilis
assay-setup: Bacteroides fragilis, NCTC10581, 48 h, strain A; 48 hours, 37° C., anaerobic chamber; lowest concentration with no detectable growth; read-out: MIC
Counter-ions that a name gives are not always drawn.
property-name: MIC (µg/mL)
Numbers only here, please. The scale is µg/mL.

compound	MIC / µg/mL
c1ccc(CCCN2CCN=C2C(Cn2ccnc2)c2ccccc2)cc1 (stereo not shown)	25

// moving on: another record for MIC
Requested read-out: MIC. Entry: CC1=NCCN1CC(C1=NCCN1c1ccc(Cl)cc1Cl)c1ccccc1 (stereo not shown) [Example 23, dihydrochloride]
1.5

Origin of the recorded values: patent US4661602A
